Source of measurements: patent US11318157B2

Biological target: PRMT5-MEP50 enzyme (Homo sapiens)
Construct: One virus expresses full length human PRMT5 with Flag-tag at N-terminus; Flag (N); purchased Charles River (Argenta); host or cells: insect cells (Sf9), baculovirus co-infection
Assay: In vitro assay 1a: high throughput mass spectrometer assay of SAH formation, 10 nM enzyme, 60 min
Format: biochemical
Conditions: averaged values, PRMT5-MEP50, 10 nM enzyme, read-out: pIC50 Assay 1a (converted)
measured_endpoint: log10(IC50) (log10 of the value in nM)
Log scale reminder: IC50 in nM, then log10 taken.

Record excerpt, results attached:
Tested on PRMT5-MEP50 enzyme (Homo sapiens): COc1ncnc2c1ccn2[C@@H]1O[C@H](COc2ccc3ccc(N)nc3c2)[C@@H](O)[C@H]1O . Observed log10(IC50): 1.00

Measured log10(IC50) (PRMT5-MEP50 enzyme (Homo sapiens)), entry Nc1ncnc2c1ccn2[C@@H]1O[C@H](CCc2ccc3cc(Br)cnc3c2)[C@@H](O)[C@H]1O : 1.10

With PRMT5-MEP50 enzyme (Homo sapiens) as the test system, Nc1ncnc2c1ccn2[C@@H]1O[C@H](CCc2ccc3ccc(NCC4CC4)nc3c2)[C@@H](O)[C@H]1O showed log10(IC50) of 0.10

Summary line: CN(C[C@H]1O[C@@H](n2ccc3c(N)ncnc32)[C@H](O)[C@@H]1O)c1ccc2cc(Br)cnc2c1 , PRMT5-MEP50 enzyme (Homo sapiens), reported log10(IC50) = 1.80

Sample CNC(=O)c1ccc2ccc(OC[C@H]3O[C@@H](n4ccc5c(N)ncnc54)[C@H](O)[C@@H]3O)cc2n1 , system: PRMT5-MEP50 enzyme (Homo sapiens). Its log10(IC50) is 3.50

Tested on PRMT5-MEP50 enzyme (Homo sapiens), the item Cc1ncnc2c1ccn2[C@@H]1O[C@H](CCc2ccc3ccc(N)nc3c2)[C@@H](O)[C@H]1O showed log10(IC50) equal to -0.20

Noted log10(IC50) for Nc1ncnc2c1ccn2[C@@H]1O[C@H](COc2ccc3cc(Br)cnc3c2)[C@@H](O)[C@H]1O , tested on PRMT5-MEP50 enzyme (Homo sapiens): 0.90

Reading of log10(IC50) for Nc1ncnc2c1ccn2[C@@H]1O[C@H](COc2cccc3ccncc23)[C@@H](O)[C@H]1O with PRMT5-MEP50 enzyme (Homo sapiens): 3.10

Entry Nc1ncnc2c1ccn2[C@@H]1C[C@H](CCc2ccc3ccc(NCc4ccc(Cl)cc4)nc3c2)[C@@H](O)[C@H]1O under PRMT5-MEP50 enzyme (Homo sapiens) had log10(IC50) of 0.30

Item CNc1ccc2ccc(OC[C@H]3O[C@@H](n4ccc5c(Cl)ncnc54)[C@H](O)[C@@H]3O)cc2n1 was tested on PRMT5-MEP50 enzyme (Homo sapiens); the reported log10(IC50) is 0.90

Let us examine a further case.
Short answer on PRMT5-MEP50 enzyme (Homo sapiens) for CCc1cnc2cc(CC[C@H]3O[C@@H](n4ccc5c(N)ncnc54)[C@H](O)[C@@H]3O)ccc2c1 , log10(IC50): 1.10

----------
Listing of entries alongside the reported IC50.
Target: PRMT5-MEP50 enzyme (Homo sapiens, UniProt O14744)
Construct: One virus expresses full length human PRMT5 with Flag-tag at N-terminus; Flag (N); purchased Charles River (Argenta); host or cells: insect cells (Sf9), baculovirus co-infection
Sequence (O14744 whole entry): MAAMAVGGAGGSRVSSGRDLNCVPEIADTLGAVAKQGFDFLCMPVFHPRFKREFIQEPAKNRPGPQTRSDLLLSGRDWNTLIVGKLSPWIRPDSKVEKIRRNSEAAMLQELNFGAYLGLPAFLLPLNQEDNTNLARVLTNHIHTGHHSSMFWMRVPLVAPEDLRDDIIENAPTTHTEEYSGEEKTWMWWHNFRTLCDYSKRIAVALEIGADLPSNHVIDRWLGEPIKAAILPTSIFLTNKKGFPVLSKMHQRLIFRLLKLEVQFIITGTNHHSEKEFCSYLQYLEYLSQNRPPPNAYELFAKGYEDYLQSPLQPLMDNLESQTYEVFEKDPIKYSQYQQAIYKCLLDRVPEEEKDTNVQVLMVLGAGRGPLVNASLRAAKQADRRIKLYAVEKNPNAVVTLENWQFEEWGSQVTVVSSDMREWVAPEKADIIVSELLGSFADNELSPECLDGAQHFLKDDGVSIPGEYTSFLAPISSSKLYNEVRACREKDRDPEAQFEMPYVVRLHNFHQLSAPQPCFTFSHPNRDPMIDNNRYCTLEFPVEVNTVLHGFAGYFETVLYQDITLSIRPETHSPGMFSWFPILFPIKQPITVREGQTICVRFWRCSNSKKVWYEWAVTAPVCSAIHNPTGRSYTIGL
Sequence (Q9BQA1 whole entry partner): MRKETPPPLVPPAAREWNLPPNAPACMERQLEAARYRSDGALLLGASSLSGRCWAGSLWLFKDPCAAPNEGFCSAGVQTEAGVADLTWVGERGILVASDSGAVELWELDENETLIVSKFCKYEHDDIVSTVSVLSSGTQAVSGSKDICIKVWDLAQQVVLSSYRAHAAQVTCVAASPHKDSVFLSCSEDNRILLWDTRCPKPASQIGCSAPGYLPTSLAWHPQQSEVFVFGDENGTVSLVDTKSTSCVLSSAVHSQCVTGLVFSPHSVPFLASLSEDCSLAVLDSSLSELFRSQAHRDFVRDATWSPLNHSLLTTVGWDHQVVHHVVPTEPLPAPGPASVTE
Test: In vitro assay 1b: high throughput mass spectrometer assay of SAH formation, 1.25 nM enzyme, 120 min
Assay type: biochemical
Details: averaged values; PRMT5-MEP50, 1.25 nM enzyme, 120 min; read-out: pIC50 Assay 1b (converted)
Write the value in nM as a bare number.

Lab note: measured IC50 of Nc1ncnc2c1ccn2[C@@H]1O[C@H](COc2ccc3ccc(NCc4ccc(Cl)cc4)nc3c2)[C@@H](O)[C@H]1O was 2.51

Further cases:
Notebook: Nc1ncnc2c1ccn2[C@@H]1O[C@H](COc2cnc3ccccc3c2)[C@@H](O)[C@H]1O , IC50 read as 3980

The compound listed as Cc1cc2c(N)ncnc2n1[C@@H]1O[C@H](COc2ccc3cccnc3c2)[C@@H](O)[C@H]1O has a reported IC50 of 126

CNc1ccc2ccc(CC[C@H]3C[C@@H](n4ccc5c(N)ncnc54)[C@H](O)[C@@H]3O)cc2n1 yielded IC50 of 2.51

So, Nc1nc2cc(CC[C@H]3O[C@@H](n4ccc5c(N)ncnc54)[C@H](O)[C@@H]3O)ccc2cc1Cl ? Its IC50 was 0.126

Entry Nc1ncnc2c1ccn2[C@@H]1O[C@H](COc2cc(C(F)(F)F)c3cccnc3c2)[C@@H](O)[C@H]1O — recorded IC50 = 631

----------
Biological target: PRMT5-MEP50 enzyme (Homo sapiens)
Construct: One virus expresses full length human PRMT5 with Flag-tag at N-terminus; Flag (N); purchased Charles River (Argenta); host or cells: insect cells (Sf9), baculovirus co-infection
Test: In vitro assay 1a: high throughput mass spectrometer assay of SAH formation, 10 nM enzyme, 60 min
Format: biochemical
Conditions: averaged values, PRMT5-MEP50, 10 nM enzyme, read-out: pIC50 Assay 1a (converted)
measured_endpoint: IC50 (µM)
Answer in µM, number only, no unit symbol.

// IC50 lookup, compound = Cc1cnc2cc(OC[C@H]3O[C@@H](n4ccc5c(N)ncnc54)[C@H](O)[C@@H]3O)ccc2c1 [Compound 217] , result: 0.00501

New cases:
# compound Nc1ncnc2c1ccn2[C@@H]1C[C@H](Cc2ccc3ccccc3c2)[C@@H](O)[C@H]1O [Compound 90] ; its IC50 = 0.1

Data point: Nc1ncnc2c1ccn2[C@@H]1C[C@H](CCc2ccc3cnc(NC4CC4)nc3c2)[C@@H](O)[C@H]1O [Compound 145] ; IC50 = 0.0158

Documented IC50 of Nc1ncnc2c1ccn2[C@@H]1O[C@H](CSc2ccc3cccnc3c2)[C@@H](O)[C@H]1O [Compound 48] : 0.1

----------
Molecular target: PRMT5-MEP50 enzyme (Homo sapiens, UniProt O14744)
Construct: One virus expresses full length human PRMT5 with Flag-tag at N-terminus; Flag (N); purchased Charles River (Argenta); host or cells: insect cells (Sf9), baculovirus co-infection
Experiment: In vitro assay 1b: high throughput mass spectrometer assay of SAH formation, 1.25 nM enzyme, 120 min
Assay type: biochemical
measured_endpoint: IC50 (nM)
Just the number in nM, nothing appended.

So for Nc1ncnc2c1ccn2[C@@H]1C[C@H](/C=C/c2ccc3cccnc3c2)[C@@H](O)[C@H]1O [Compound 55] , the logged IC50 turned out to be 31.6

Please look at the following compound next.
Consider Nc1ncnc2c1ccn2[C@@H]1C[C@H](OCc2ccc3cccnc3c2)[C@@H](O)[C@H]1O [Compound 64] . Its measured IC50 is 794

----------
Biological target: PRMT5-MEP50 enzyme (Homo sapiens, UniProt O14744)
Construct: One virus expresses full length human PRMT5 with Flag-tag at N-terminus; Flag (N); purchased Charles River (Argenta); host or cells: insect cells (Sf9), baculovirus co-infection
Experiment: In vitro assay 1b: high throughput mass spectrometer assay of SAH formation, 1.25 nM enzyme, 120 min
Assay type: biochemical
Conditions: averaged values; PRMT5-MEP50, 1.25 nM enzyme, 120 min; read-out: pIC50 Assay 1b (converted)
measured_endpoint: IC50 (nM)
Write the answer as a number in nM, unit excluded.

These recorded examples may help you get a feel for the data.
Notebook: Nc1ccc2ccc(OC[C@H]3O[C@@H](n4ccc5c(O)ncnc54)[C@H](O)[C@@H]3O)cc2n1 [Compound 208] , IC50 read as 1260

The reported IC50 of the molecule Nc1nc2cc(OC[C@H]3C[C@@H](n4ccc5c(N)ncnc54)[C@H](O)[C@@H]3O)ccc2cc1Cl [Compound 223] was 0.2

Summary for this molecule, COC(=O)c1cnc2cc(OC[C@H]3O[C@@H](n4ccc5c(N)ncnc54)[C@H](O)[C@@H]3O)ccc2c1 [Compound 105] : IC50 is 1000

New cases:
Looking up CCc1cnc2cc(OC[C@H]3O[C@@H](n4ccc5c(N)ncnc54)[C@H](O)[C@@H]3O)ccc2c1 [Compound 213] , I see its IC50 listed as 15.8

----------
Target: PRMT5-MEP50 enzyme (Homo sapiens)
Construct: One virus expresses full length human PRMT5 with Flag-tag at N-terminus; Flag (N); purchased Charles River (Argenta); host or cells: insect cells (Sf9), baculovirus co-infection
Assay: In vitro assay 1a: high throughput mass spectrometer assay of SAH formation, 10 nM enzyme, 60 min
Type: biochemical
Conditions: averaged values, PRMT5-MEP50, 10 nM enzyme, read-out: pIC50 Assay 1a (converted)
Decide using IC50 alone. Strictly below 50 nM: rule met. Equal to or above 50 nM: rule not met.

Example entries begin here.
Record COCc1ccc2ccc(OC[C@H]3O[C@@H](n4ccc5c(N)ncnc54)[C@H](O)[C@@H]3O)cc2n1 : is its IC50 strictly below 50 nM?
rule not met

Find out if reported IC50 for Nc1ncnc2c1ncn2[C@@H]1O[C@H](COc2ccc3cc(Br)cnc3c2)[C@@H](O)[C@H]1O is less than 50 nM
rule not met

***
Input Nc1ncnc2c1ccn2[C@@H]1O[C@H](COc2ccc3ncccc3c2)[C@@H](O)[C@H]1O ; condition: IC50 strictly below 50 nM. Does it hold?
rule not met

Please let me know if Nc1ncc2ccc(CC[C@H]3C[C@@H](n4ccc5c(N)ncnc54)[C@H](O)[C@@H]3O)cc2n1 shows IC50 below 50 nM.
rule met

Strictly below 50 nM in IC50? Cc1ncnc2c1ccn2[C@@H]1C[C@H](CCc2ccc3ccc(NCC4CC4)nc3c2)[C@@H](O)[C@H]1O
rule met

Is IC50 of O[C@@H]1[C@H](O)[C@@H](COc2ccc3c(Cl)ccnc3c2)O[C@H]1n1ccc2c(Cl)ncnc21 strictly below 50 nM?
rule not met
